Assay: chemical genetic growth profiling, strain panel (AID 1159580);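 further: tested at 20 µM; growth read once vehicle control cultures reached saturation at 30 °C; lower values mean less growth of the strain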
Settings: S. cerevisiae deletion strains, growth OD, locus YOR070C, strain gyp1
Out of some 5,500 compounds screened, about 2,000 (36%) were called active. About 18% were inconclusive and are not listed. No stated cut-off is given here; in the data, active means normalized growth mostly below about 0.91 (no sharp cut-off); inconclusive means no clear call, values can overlap the other calls; inactive means mostly above about 0.92. The list shows a part of the results.
Hi there, use one of these labels in your reply, thanks! true = active, false = inactive

Please review the entries below; each comes with its answer.
CCC(=O)OCC(=O)C1(OC(=O)CC)C(C)CC2C3CCC4=CC(=O)C=CC4(C)C3(Cl)C(O)CC21C (stereo not drawn); false
COC1=CC(C)[C@@H]2C[C@H]3OC(=O)C[C@H]4C(C)=C(OC)C(=O)C([C@@]34C)[C@@]2(C)C1=O (stereo partly drawn); false
COc1ccc(-c2cc(=O)c3c(O)c(OC)c(OC)c(OC)c3o2)cc1OC; false
CN(C)CC[C@H](c1ccc(Cl)cc1)c1ccccn1; false
COC(=O)NC(=S)Nc1ccccc1NC(=S)NC(=O)OC; false

Req: Per the records of this test, what outcome belongs to NC[C@H]1O[C@H](O[C@H]2[C@H](O)[C@@H](O[C@H]3O[C@H](CO)[C@@H](O)[C@H](N)[C@H]3O)[C@H](N)C[C@@H]2N)[C@H](N)[C@@H](O)[C@@H]1O ?
Resp: false

Req: Then this compound: CCC(=O)OCC(=O)[C@@]1(OC(=O)CC)[C@@H](C)CC2C3CCC4=CC(=O)C=C[C@]4(C)C3(F)[C@@H](O)C[C@@]21C (stereo partly drawn)
Resp: false

Req: Follow-up entry: O=C(CCCN1CCC(O)(c2ccc(Cl)cc2)CC1)c1ccc(F)cc1
Resp: true

Req: Record: COC1=CC(=O)C=C(OC)C1=O
Resp: false

Req: Also need CC1(C)[C@@H]2CC[C@@]1(C)C(=O)C2 , thanks.
Resp: false

Req: Another: N#Cc1c(Cl)cccc1Cl
Resp: false

Req: Ok, now C[C@H]1O[C@H](O[C@H]2[C@H](O)[C@@H](O)[C@@H](O[C@H]3[C@H](O)[C@@H](O)C(O)O[C@@H]3CO)O[C@@H]2CO)[C@H](O)[C@@H](O)[C@@H]1N[C@H]1C=C(CO)[C@@H](O)[C@H](O)[C@H]1O (stereo partly drawn)
Resp: false

Req: Query CCC(=O)O[C@]1(C(=O)CCl)[C@@H](C)CC2C3CCC4=CC(=O)C=C[C@]4(C)[C@@]3(F)[C@@H](O)C[C@@]21C (stereo partly drawn) next
Resp: false

Req: Next up: NCC(O)CC(=O)O (stereo not drawn)
Resp: false

Req: Next compound: CCC(=O)OCC(=O)C1(OC(=O)CC)C(C)CC2C3C(Cl)CC4=CC(=O)C=CC4(C)C3C(O)CC21C (stereo not drawn)
Resp: false

Req: Proceed to O=C1CC2(CCCC2)CC(=O)N1CCCCN1CCN(c2ncccn2)CC1
Resp: false

Req: Proceed to C[C@@H](CO)NC(=O)C1C=C2c3cccc4[nH]cc(c34)C[C@H]2N(C)C1 (stereo partly drawn)
Resp: false

Req: Now consider Cc1c(OCC(F)(F)F)ccnc1CS(=O)c1nc2ccccc2[nH]1 (stereo not drawn) .
Resp: false
